MEASUREMENT_TARGET: T1, tissue factor (S33 to E251) (Homo sapiens, UniProt P13726)
T1 construct: tissue factor (TF), residues S33 to E251; the antigen of the antibody D3h44 in PDB 1JPS; The tag was removed with Ulp1; tag-free TF was used; Antigen residues named in the text (S202, K169, P194, I152) follow the numbering of PDB 1JPS, not that of the construct limits; also called TF; antigen; source: E. coli BL21 (DE3), purified (Ni-NTA, SEC); not shown: His6, N-terminal, cleaved; SUMO, …
T1 sequence (P13726 33-251): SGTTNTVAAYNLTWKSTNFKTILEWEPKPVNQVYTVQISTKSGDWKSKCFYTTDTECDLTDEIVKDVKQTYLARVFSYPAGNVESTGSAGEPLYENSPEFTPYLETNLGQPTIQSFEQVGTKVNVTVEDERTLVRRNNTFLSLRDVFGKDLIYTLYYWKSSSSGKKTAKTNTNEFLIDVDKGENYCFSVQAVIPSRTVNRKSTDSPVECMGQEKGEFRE
PROCEDURE_DETAILS: SPR; Biacore 8K; TF immobilised on a CM5 chip by amine coupling (450-750 response units); Fab as analyte; single-cycle kinetics, association 120 s, dissociation 1800 s, no regeneration; PBS with 0.005% Tween-20; three measurements
CONDITION_DETAILS: both partners purified
REPORTED_METRIC: pKd
Please treat pKd as minus the base-10 logarithm of the molar concentration.

The following binders have reported results that may help.
BINDER: D3h44 Fab L-H91E (Fab, V domains shown, as the heavy chain of m2 (PDB 1JPS chain H); as the light chain of m2 (PDB 1JPS chain L) with the stated change; Tag as for m2; source: ExpiCHO, purified (Ni-NTA, SEC)) VH: EVQLVESGGGLVQPGGSLRLSCAASGFNIKEYYMHWVRQAPGKGLEWVGLIDPEQGNTIYDPKFQDRATISADNSKNTAYLQMNSLRAEDTAVYYCARDTAAYFDYWGQGTLVTVSS VL: DIQMTQSPSSLSASVGDRVTITCRASRDIKSYLNWYQQKPGKAPKVLIYYATSLAEGVPSRFSGSGSGTDYTLTISSLQPEDFATYYCLQEGESPWTFGQGTKVEIK
pKd: 10.70

BINDER: D3h44 Fab L-H91Q (Fab, V domains shown, as the heavy chain of m2 (PDB 1JPS chain H); as the light chain of m2 (PDB 1JPS chain L) with the stated change; Tag as for m2; source: ExpiCHO, purified (Ni-NTA, SEC)) VH: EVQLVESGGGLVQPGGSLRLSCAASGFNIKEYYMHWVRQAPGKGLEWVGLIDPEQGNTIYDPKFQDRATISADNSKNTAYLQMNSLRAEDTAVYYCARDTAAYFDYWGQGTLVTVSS VL: DIQMTQSPSSLSASVGDRVTITCRASRDIKSYLNWYQQKPGKAPKVLIYYATSLAEGVPSRFSGSGSGTDYTLTISSLQPEDFATYYCLQQGESPWTFGQGTKVEIK
pKd: 9.64

With those in mind, consider the next binder.
Input D3h44 Fab H-K30Q (Fab, V domains shown, as the heavy chain of m2 (PDB 1JPS chain H) with the stated change; as the light chain of m2 (PDB 1JPS chain L); Tag as for m2; source: ExpiCHO, purified (Ni-NTA, SEC)) VH: EVQLVESGGGLVQPGGSLRLSCAASGFNIQEYYMHWVRQAPGKGLEWVGLIDPEQGNTIYDPKFQDRATISADNSKNTAYLQMNSLRAEDTAVYYCARDTAAYFDYWGQGTLVTVSS VL: DIQMTQSPSSLSASVGDRVTITCRASRDIKSYLNWYQQKPGKAPKVLIYYATSLAEGVPSRFSGSGSGTDYTLTISSLQPEDFATYYCLQHGESPWTFGQGTKVEIK . Output pKd: 10.01

Measured values drawn from paper PMC7567794 for this set.
